# systemTested: T1, recombinant EBOV GP (Ebola virus (EBOV), UniProt Q05320 33-650)
# T1 sequence: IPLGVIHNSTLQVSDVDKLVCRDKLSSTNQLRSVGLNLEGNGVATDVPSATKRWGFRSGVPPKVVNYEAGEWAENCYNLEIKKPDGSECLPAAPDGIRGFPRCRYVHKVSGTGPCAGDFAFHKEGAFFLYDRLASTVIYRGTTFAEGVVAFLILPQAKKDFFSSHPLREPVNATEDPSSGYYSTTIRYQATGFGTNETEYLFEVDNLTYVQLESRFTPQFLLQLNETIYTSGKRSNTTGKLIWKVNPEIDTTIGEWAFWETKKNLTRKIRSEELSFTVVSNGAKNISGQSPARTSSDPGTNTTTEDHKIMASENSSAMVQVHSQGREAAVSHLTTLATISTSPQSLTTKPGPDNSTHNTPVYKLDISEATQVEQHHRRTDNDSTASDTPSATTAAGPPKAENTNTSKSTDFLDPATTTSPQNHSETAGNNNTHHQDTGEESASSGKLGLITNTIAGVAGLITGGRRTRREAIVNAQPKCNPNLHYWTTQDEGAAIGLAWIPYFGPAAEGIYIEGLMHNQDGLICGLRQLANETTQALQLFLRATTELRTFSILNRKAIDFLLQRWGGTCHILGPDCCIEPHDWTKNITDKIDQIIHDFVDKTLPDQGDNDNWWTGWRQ
# experimentSummary: ELISA on plates coated with recombinant EBOV GP
endpoint: binding result

17F6 human IgG1 chimeric mAb (antibody, V domains shown) VH: DVQLQESGPGLVKPSQTVSLTCTVTGISITAGNYRWSWIRQFPGNKLEWIGYIYYSGTIAYNPSLTSRTAITRDSSKNQFFLEMNSLTAEDTATYYCARDRGWLLLDYWGQGTTLTVSS VL: DVLMTQTPLSLPVSLGDQASISCRSSQTIVHSNGNTYLEWYLQKPGQSPKLLIYKVSSRFSGVPDRFSGSGSGTDFTLKISRVEAEDLGVYYCFQGSHFPYTFGGGTKLEIKR | no binding
16F6 human IgG1 chimeric mAb (antibody, V domains shown) VH: EVQLVESGGGLVTPGGSLKLSCAASGFAFNYYDMFWVRQNTEKRLEWVAYINSGGGNTYYPDTVKGRFTISRDNAKKTLFLQMSSLRSEDTAMYYCARQLYGNSFFDYWGQGTSLTV VL: DIVMTQSHKFMSTSVGDRVTITCKASQDVTTAVAWYQQKPGHSPKLLIYWASTRHTGVPDRFTGSGSGTDFTLTLNSVQAEDLALYYCQQHYSTPLTFGAGTKLEL | no binding
X10B6 human IgG1 chimeric mAb (antibody, V domains shown) VH: QVQLEQSGAEVKKPGTSVKVSCKASGFFTFGSDAISWVRQAPGQGLEWMGVIIPVVGARTYAEKFQGRITITADTSTSTVFMDLSSLRSDDTAVYYCAREGARAATGHYKSMDIWGRGRTLV VL: ELLMTQSPSSLSASVGDRVTITCRASQGISTYLSWFQQKPGKPPKLLIYLTSSLEDGVPSRFSGAGSGTEFTLTISNLQPEDFASYYCLQYQSYPRTFGPGTKVEIK | no binding

FYI, the data here is from patent US20230174627A1.
